tested on: Cavia porcellus; assay: Percentage decrease in bronchodilator activity against serotonin-induced bronchospasm reaction in guinea pig by intraveneous administration at dose 250 ug/kg; type: functional
Rule: fulfilled for Decrease not less than 30%, not fulfilled for anything less.

Here are 7 compounds together with their reported answers.
[
  {
    "compound": "Cn1c(=O)c2c(ncn2CCC(O)CCN2CCN(CCCSc3ccccc3)CC2)n(C)c1=O (centres undefined)",
    "group label": "fulfilled"
  },
  {
    "compound": "CN(C)CCC(c1ccc(Cl)cc1)c1ccccn1 (centres undefined)",
    "group label": "not fulfilled"
  },
  {
    "compound": "Cn1c(=O)c2c(ncn2CC(O)CN2CCN(CCOc3ccccc3)CC2)n(C)c1=O (centres undefined)",
    "group label": "not fulfilled"
  },
  {
    "compound": "Cn1cnc2c1c(=O)n(CCCN1CCN(CC(O)CSc3ccccc3)CC1)c(=O)n2C (centres undefined)",
    "group label": "not fulfilled"
  },
  {
    "compound": "Cn1c(=O)c2c(ncn2CC(O)CN2CCN(CCCSc3ccccc3)CC2)n(C)c1=O (centres undefined)",
    "group label": "not fulfilled"
  },
  {
    "compound": "CC(CN1c2ccccc2Sc2ccccc21)N(C)C (centres undefined)",
    "group label": "not fulfilled"
  },
  {
    "compound": "Cn1c(=O)c2c(ncn2CC(O)CN2CCN(CCCCSc3ccccc3)CC2)n(C)c1=O (centres undefined)",
    "group label": "not fulfilled"
  }
]

Evaluate Cn1cnc2c1c(=O)n(CC(O)CN1CCN(CCCSc3ccccc3)CC1)c(=O)n2C (centres undefined) : Decrease at minimum 30%?
fulfilled

---

system: Cavia porcellus; test: Percentage decrease in bronchodilator activity against serotonin-induced bronchospasm reaction in guinea pig by intraveneous administration at dose 250 ug/kg; assay type: functional
parameter: Decrease (%)
One number for each entry, in %.

Solved entries:
[
  {
    "compound": "Cn1cnc2c1c(=O)n(CC(O)CN1CCN(CCCSc3ccc(Cl)cc3)CC1)c(=O)n2C (stereo not given)",
    "test system": "Cavia porcellus",
    "units": "%",
    "Decrease": 8
  },
  {
    "compound": "Cn1c(=O)c2c(ncn2CCCN2CCN(CCCCSc3ccccc3)CC2)n(C)c1=O",
    "test system": "Cavia porcellus",
    "units": "%",
    "Decrease": 24
  },
  {
    "compound": "Cn1c(=O)c2c(ncn2CC(O)CN2CCN(CCCOc3ccccc3)CC2)n(C)c1=O (stereo not given)",
    "test system": "Cavia porcellus",
    "units": "%",
    "Decrease": 43
  },
  {
    "compound": "Cn1cnc2c1c(=O)n(CCCN1CCN(CCCOc3ccccc3)CC1)c(=O)n2C",
    "test system": "Cavia porcellus",
    "units": "%",
    "Decrease": 47
  }
]

// next item, Decrease requested
The reported Decrease of the compound `COc1ccc(OCCCN2CCN(CCCn3cnc4c3c(=O)n(C)c(=O)n4C)CC2)cc1` was 0

---

I'd appreciate it if you could supply Decrease values for the items below.
tested on: Cavia porcellus; assay: Percentage decrease in bronchodilator activity against serotonin-induced bronchospasm reaction in guinea pig by intraveneous administration at dose 250 ug/kg; format: functional

[
  {
    "compound": "Cn1c(=O)c2c(ncn2CCCN2CCN(CCOc3ccccc3)CC2)n(C)c1=O",
    "test system": "Cavia porcellus",
    "Decrease": "0%"
  },
  {
    "compound": "Cn1c(=O)c2c(ncn2CC(O)CN2CCN(CC(O)CSc3ccccc3)CC2)n(C)c1=O (centres undefined)",
    "test system": "Cavia porcellus",
    "Decrease": "0%"
  },
  {
    "compound": "Cc1ccc(SCCCN2CCN(CCCn3cnc4c3c(=O)n(C)c(=O)n4C)CC2)cc1",
    "test system": "Cavia porcellus",
    "Decrease": "24%"
  }
]

// for each compound below, give its Decrease
1. Cn1c(=O)c2c(ncn2CCCN2CCN(CCCCOc3ccccc3)CC2)n(C)c1=O
2. Cn1cnc2c1c(=O)n(CC(O)CN1CCN(CCCOc3ccc(Cl)cc3)CC1)c(=O)n2C (centres undefined)
3. Cn1c(=O)c2c(ncn2CCCN2CCN(CCCOc3ccc(Cl)cc3)CC2)n(C)c1=O

26%
11%
0%

// for each compound below, give its Decrease
1. Cc1ccc(SCCCN2CCN(CCCn3c(=O)c4c(ncn4C)n(C)c3=O)CC2)cc1
2. CC(=O)OC(CN1CCN(CCCSc2ccccc2)CC1)Cn1cnc2c1c(=O)n(C)c(=O)n2C (centres undefined)
3. Cn1c(=O)c2c(ncn2CCCN2CCN(CCCCSc3ccc(Cl)cc3)CC2)n(C)c1=O

1: 6%; 2: 29%; 3: 23%
